Data origin, for the record: patent US10287255B2

Target: human recombinant HDAC6 (Homo sapiens)
Construct: purchased Calbiochem 382180
Sequence (Q9UBN7 1-1215): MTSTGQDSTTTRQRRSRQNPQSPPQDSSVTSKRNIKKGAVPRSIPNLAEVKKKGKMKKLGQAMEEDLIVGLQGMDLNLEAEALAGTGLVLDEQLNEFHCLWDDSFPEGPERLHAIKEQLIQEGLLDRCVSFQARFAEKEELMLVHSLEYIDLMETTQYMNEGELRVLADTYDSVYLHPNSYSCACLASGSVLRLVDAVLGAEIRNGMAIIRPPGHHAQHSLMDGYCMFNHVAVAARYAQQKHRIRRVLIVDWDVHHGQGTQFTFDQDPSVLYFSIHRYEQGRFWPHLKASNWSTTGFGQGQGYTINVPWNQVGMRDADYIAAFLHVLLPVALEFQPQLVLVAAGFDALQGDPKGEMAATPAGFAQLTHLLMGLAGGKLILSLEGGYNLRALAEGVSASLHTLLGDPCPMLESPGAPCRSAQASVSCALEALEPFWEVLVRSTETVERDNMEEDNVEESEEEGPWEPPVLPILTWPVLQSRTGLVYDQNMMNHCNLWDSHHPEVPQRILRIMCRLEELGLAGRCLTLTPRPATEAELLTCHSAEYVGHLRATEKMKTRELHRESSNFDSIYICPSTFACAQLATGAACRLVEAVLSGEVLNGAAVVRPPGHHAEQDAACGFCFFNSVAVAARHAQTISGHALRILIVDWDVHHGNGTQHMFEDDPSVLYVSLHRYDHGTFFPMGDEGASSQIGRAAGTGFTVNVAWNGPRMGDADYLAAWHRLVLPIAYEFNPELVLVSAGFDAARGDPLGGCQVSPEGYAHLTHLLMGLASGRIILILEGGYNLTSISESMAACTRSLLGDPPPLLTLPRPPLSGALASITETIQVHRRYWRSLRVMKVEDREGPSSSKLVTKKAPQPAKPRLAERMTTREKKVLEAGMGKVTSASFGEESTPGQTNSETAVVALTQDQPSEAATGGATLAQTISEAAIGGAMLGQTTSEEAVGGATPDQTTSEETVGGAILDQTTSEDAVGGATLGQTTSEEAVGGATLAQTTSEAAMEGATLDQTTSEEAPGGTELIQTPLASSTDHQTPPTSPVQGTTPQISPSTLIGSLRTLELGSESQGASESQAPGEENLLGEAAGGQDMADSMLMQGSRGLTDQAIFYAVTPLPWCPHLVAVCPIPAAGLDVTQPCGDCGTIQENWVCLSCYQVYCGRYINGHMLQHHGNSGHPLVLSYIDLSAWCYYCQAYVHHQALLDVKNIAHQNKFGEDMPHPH
Experiment: HDAC6 enzyme activity inhibition assay (in vitro, fluorimetric)
Type: biochemical
Conditions: HDAC6 selectivity over HDAC1
Listed here are compounds together with their documented HDAC6 selectivity (fold).

The cases that follow already have their HDAC6 selectivity (fold) on record.
C[C@@H]1CN(Cc2ccc(C(=O)NO)cc2)C[C@H](C)N1Cc1cc(C(F)(F)F)cc(C(F)(F)F)c1 [Compound 214]
>61 fold
C[C@@H]1CN(Cc2c[nH]c3cc(C(=O)NO)ccc23)C[C@H](C)N1Cc1ccccc1 [Compound 520]
>11 fold
CC(C)NC(=O)N1[C@H](C)CN(Cc2ccc(C(=O)NO)cc2)C[C@@H]1C [Compound 098]
>133 fold
C[C@@H]1CN(Cc2ccc(C(=O)NO)cc2)C[C@H](C)N1Cc1ccccc1F [Compound 211]
>154 fold

Continue with the compound presented below.
Query: I'm curious: which HDAC6 selectivity (fold) was measured for C[C@@H]1CN(Cc2ccc(C(=O)NO)cc2)C[C@H](C)N1Cc1cccc(CN2CCN(CC(C)(C)F)CC2)c1 [Compound 387] tested on human recombinant HDAC6 (Homo sapiens)?
Reply: >118 fold
